- targetOfAssay: human k-opioid receptor (kOR) (Homo sapiens, UniProt P41145)
- Sequence (P41145 whole entry): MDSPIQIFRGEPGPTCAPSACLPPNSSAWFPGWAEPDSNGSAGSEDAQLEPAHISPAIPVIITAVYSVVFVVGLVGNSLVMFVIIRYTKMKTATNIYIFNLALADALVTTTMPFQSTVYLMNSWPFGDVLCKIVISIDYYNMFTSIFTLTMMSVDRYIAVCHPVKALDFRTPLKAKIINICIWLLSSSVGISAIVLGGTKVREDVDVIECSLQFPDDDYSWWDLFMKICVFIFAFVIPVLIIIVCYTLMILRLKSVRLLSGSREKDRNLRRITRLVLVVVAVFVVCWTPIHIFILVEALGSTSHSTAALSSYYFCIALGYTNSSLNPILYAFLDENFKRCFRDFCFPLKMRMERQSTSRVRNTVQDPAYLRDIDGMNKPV
assayEndpoint: pIC50
In simple prose, pIC50 is minus the logarithm base ten of a concentration in moles per litre.

O=C(c1c(-c2ccccc2)nn2ccccc12)N1CCC[C@H]1Cn1ccc(-c2ccccc2)n1 on human k-opioid receptor (kOR) (Homo sapiens, UniProt P41145) gives pIC50 = 6.00

Note to self: pIC50 of C[C@@H]1CCCN(C(=O)c2c(-c3ccccc3)nn3c2COCC3)[C@@H]1CNc1ccc(C(F)(F)F)cn1 with human k-opioid receptor (kOR) (Homo sapiens, UniProt P41145) was 5.83

Measured pIC50 (human k-opioid receptor (kOR) (Homo sapiens, UniProt P41145)), entry O=C(c1c(-c2ccccc2)nn2ccccc12)N1CCCC[C@H]1COc1ccc(C(F)(F)F)cn1 : 5.96

Bench note, human k-opioid receptor (kOR) (Homo sapiens, UniProt P41145): O=C(c1c(-c2ccccc2F)nn2ccccc12)N1[C@H](Cn2ccc(-c3ccc(F)cn3)n2)C[C@@H]2C[C@@H]21 , pIC50 reads 6.04

Values from patent US20260070922A1
